test system: P. falciparum male gametocytes; assay: P. falciparum Dual Gamete Formation Assay (PfDGFA), male readout (exflagellation); type: cell-based, Plasmodium falciparum NF54; conditions: number of replicates with >50% inhibition in the male readout, 2µM
Each item that follows carries a reported HitlevelM.
Endpoint: HitlevelM

Compound	Experimental target	Assay value
COc1ccc(CNC2CCN(C)CC2)cc1-c1cccc(S(=O)(=O)NCc2ccccc2)c1.O=C(O)C(F)(F)F [TCMDC-132267]	P. falciparum male gametocytes	4
CC(C)S(=O)(=O)N1CCN(Cc2ccc3c(c2)nc(NC(=O)c2ccsc2)n3C[C@H](O)c2ccccc2)CC1 [TCMDC-138569]	P. falciparum male gametocytes	4
Cl.OC(CNCCCCCCNCC(O)c1ccc(Cl)c(Cl)c1)c1ccc(Cl)c(Cl)c1 (stereo not drawn) [TCMDC-141987]	P. falciparum male gametocytes	4
CCc1c(CCNCCCCCCNC(C)(C)Cc2ccc3c(c2CC)OCO3)ccc(OC)c1OC.Cl [TCMDC-132055]	P. falciparum male gametocytes	4
Cc1cccc2nc(-c3ccc(-c4ccc(CN5CCC(CCN6CCCCC6)CC5)cc4)cc3)[nH]c12.O=C(O)C(F)(F)F [TCMDC-133929]	P. falciparum male gametocytes	4
O=C(NC1CCN(Cc2ccccc2)CC1)c1cc(C(=O)NC2CCN(Cc3ccccc3)CC2)cc(C(=O)NC2CCN(Cc3ccccc3)CC2)c1 [TCMDC-124568]	P. falciparum male gametocytes	4
COc1cc(CNCCCCCCNCc2cc(OC)c3ccccc3c2OC)c(OC)c2ccccc12.CS(=O)(=O)O [TCMDC-137502]	P. falciparum male gametocytes	4
Nc1nc(N)c2c(ccc3c2ccn3Cc2ccc3c(c2)OCO3)n1 [TCMDC-137808]	P. falciparum male gametocytes	4
Cn1c(-c2ccccc2)cc2c3c(N)nc(N)nc3ccc21 [TCMDC-137985]	P. falciparum male gametocytes	4
COc1cc2c(cc1S(=O)(=O)c1ccc(COc3ccc(C(F)(F)F)cc3)cc1)CNCC2.Cl [TCMDC-134479]	P. falciparum male gametocytes	4
Cc1cccc(Nc2nc(NCCCCN)nc3cc[nH]c(=O)c23)c1.O=C(O)C(F)(F)F [TCMDC-134946]	P. falciparum male gametocytes	4
CCn1c(-c2nonc2N)nc2c(-c3ccccc3)ncc(OCCCNCCCN3CCOCC3)c21.O=C(O)C(F)(F)F [TCMDC-135858]	P. falciparum male gametocytes	3
COc1ccc2nc(-c3cc(-c4ccc(NC(=O)C(C)C)cc4)cnc3N)[nH]c2c1 [TCMDC-135322]	P. falciparum male gametocytes	4
CN(C)CC(O)COc1ccc(Nc2ncc([N+](=O)[O-])c(Nc3ccccc3O)n2)cc1.O=C(O)C(F)(F)F (stereo not drawn) [TCMDC-141399]	P. falciparum male gametocytes	3
Br.CC[C@H]1CN2CCc3cc(OC)c(OC)cc3[C@@H]2C[C@@H]1C[C@H]1NCCc2c1cc(OC)c(O)c2I [TCMDC-131829]	P. falciparum male gametocytes	4
CC(C)(CN)c1nc(-c2ccc(Br)c(O)c2)c(-c2ccncc2)[nH]1.Cl [TCMDC-140680]	P. falciparum male gametocytes	4
CC(Cc1ccc(C(=O)Nc2ccc(CC(C)NCCc3cccc(Cl)c3)cc2)cc1)NCCc1ccc(C(F)(F)F)cc1 (stereo not drawn) [TCMDC-139790]	P. falciparum male gametocytes	4
CC(C#N)Cc1ccc(-c2cnc(N)c3cc(-c4ccnc(N)n4)ccc23)cc1 (stereo not drawn) [TCMDC-134547]	P. falciparum male gametocytes	4
CN(C)CCNCc1ccc(-c2ccc3c(Nc4ccc(Oc5ccccc5)cc4)ccnc3c2)o1 [TCMDC-138399]	P. falciparum male gametocytes	4
CCOc1cc(CNCCCCCCNCc2cc(OCC)c(OCC)c3ccccc23)c2ccccc2c1OCC.CS(=O)(=O)O [TCMDC-137939]	P. falciparum male gametocytes	4
CN1CCN(CCCNCc2ccc(Nc3nccc(Nc4ccc(Oc5ccccc5)cc4)n3)cc2)CC1 [TCMDC-138621]	P. falciparum male gametocytes	4
Cc1cc(N)nc2ccc(-c3ccc(CCN)cc3)cc12 [TCMDC-137786]	P. falciparum male gametocytes	3
Fc1ccc2[nH]c(-c3ccc(-c4ccc(CNCCN5CCNCC5)cc4)cc3)nc2c1.O=C(O)C(F)(F)F [TCMDC-132866]	P. falciparum male gametocytes	3
CN1CCCC1CCNCc1cccc(-c2cnc(N(C)C3CCCCC3)nc2)c1 (stereo not drawn) [TCMDC-133141]	P. falciparum male gametocytes	4
CNC(=O)c1ccccc1Nc1nc(Nc2ccc(N3CCOCC3)cc2)ncc1Cl.Cl [TCMDC-134144]	P. falciparum male gametocytes	4
COc1ccc(CNC2CCN(C)CC2)cc1-c1ccc(S(=O)(=O)NCc2ccccc2)cc1.O=C(O)C(F)(F)F [TCMDC-132244]	P. falciparum male gametocytes	4
CCCCOc1c(CNCCCCCCNCc2ccc3ccccc3c2OCCCC)ccc2ccccc12.CS(=O)(=O)O [TCMDC-137975]	P. falciparum male gametocytes	3
COc1ccc2c(c1CCNCCCCNCCc1c(OC)ccc3c1CCCC3)CCCC2.CS(=O)(=O)O [TCMDC-137324]	P. falciparum male gametocytes	4
COc1c(OC)c(OC)c2ccccc2c1CNCCCCCCNCc1c(OC)c(OC)c(OC)c2ccccc12.Cl [TCMDC-137827]	P. falciparum male gametocytes	3
COc1ccc(-c2cnc3[nH]cc(-c4ccncc4)c3c2)cc1OC [TCMDC-135853]	P. falciparum male gametocytes	4
